EXPERIMENTAL_SYSTEM: Peptidyl-prolyl cis-trans isomerase FKBP1A (Homo sapiens)
ASSAY_PROTOCOL: small-molecule binding to FKBP12 – biophysical, NMR detection (AID 608)
CONDITION_PARAMETERS: purified FKBP12
Active and inactive are the calls of the source. How the calls were made is not given here.
Result category, one only: Y = active, N = inactive

Record excerpt, results attached:
>>> class_name("CN1C(=O)C2CC=C(Cl)CC2C1=O (configuration not stated)")
"N"
>>> class_name("O=C1CSC(=Nc2ccccc2)N1")
"N"
>>> class_name("S=c1ccc(N2CCCCC2)n[nH]1")
"N"
>>> class_name("NC(=O)CSc1ncnc2ccccc12")
"N"
>>> class_name("O=C(Nc1ccon1)c1cccc(C(F)(F)F)c1")
"N"

Just curious, what result did N=Cc1c(O)n(-c2cccc(Cl)c2)c(=O)[nH]c1=O get here? N

What do we get for CN1CCN(S(=O)(=O)c2ccc(=O)[nH]c2)CC1 ? N

Please give the result for CC(=O)NC(=S)Nc1ccccc1C(N)=O too. N

Now this one: OCCNC(=S)Nc1ccc(F)cc1 N

COc1cc([C@@H]2c3cc4c(cc3C(OC3O[C@@H]5COC(C)O[C@H]5[C@H](O)[C@H]3O)C3COC(=O)[C@@H]32)OCO4)cc(OC)c1O (some centres not stated) , same question. N

Follow-up entry: CS(=O)(=O)NN=C1CCCCC1 N

Item: CN(C)N1C(=O)c2ccccc2C1=O N

Check NC(=O)c1ccc(NC(=O)c2cccnc2)cc1 too. N

Moving on to COc1ccccc1NC(C)=O N

Try this compound next: Clc1cccc(Cl)c1Cn1c(-c2cscn2)nc2ccccc21 N

// repeat for O=C(Cc1ccccc1)Nc1c[nH]c(=O)[nH]c1=O and report N

Likewise for COc1cc(/C=C/C(=O)O)cc(OC)c1OC ? N

Proceed to CNC(=S)Nc1ccc(C(=O)O)cc1 N

Similarly, COc1ccc2cc1Oc1ccc(cc1)C[C@H]1c3cc(c(OC)cc3CCN1C)Oc1c(OC)c(OC)cc3c1[C@H](C2)N(C)CC3 ? N

Then this compound: Clc1ccccc1OCc1nc(-c2ccncc2)no1 N

Request: O=C(O)C1CC(=O)N(Cc2cccs2)C1 (configuration not stated) N

Same read-out for C[n+]1ccc(C(=O)[O-])cc1 ? N

Could you do the same for Nc1cc(=O)[nH]c(=S)n1CCc1ccccc1 , please? N

Queued: Oc1ccc(/C=C/c2cc(O)cc(O)c2)cc1 N

====

EXPERIMENTAL_SYSTEM: Peptidyl-prolyl cis-trans isomerase FKBP1A (Homo sapiens) (UniProt P62942)
Sequence (P62942 whole entry, looked up): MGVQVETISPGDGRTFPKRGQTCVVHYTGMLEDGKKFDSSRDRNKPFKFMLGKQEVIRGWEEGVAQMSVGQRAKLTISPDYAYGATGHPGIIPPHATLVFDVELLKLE
ASSAY_PROTOCOL: small-molecule binding to FKBP12 – biophysical, NMR detection (AID 608)
CONDITION_PARAMETERS: purified FKBP12
Activity calls are given as the source filed them. How the calls were made is not given here.
Outcomes you can answer with include only these: 1 (yes) (active), 0 (no) (inactive)

Example results:
>>> class_name("Cc1cc(C(=O)c2c(C)nn(C)c2Cl)n(C)n1")
"0 (no)"
>>> class_name("CC(=O)Nc1ccc(C(=O)n2nc(C)cc2C)cc1")
"0 (no)"
>>> class_name("O=c1[nH]c2ccc(S(=O)(=O)NC3CC3)cc2[nH]1")
"0 (no)"
>>> class_name("Cc1cn2c(-c3cccnc3)nnc2s1")
"0 (no)"
>>> class_name("Cc1ncc(C[n+]2csc3ccccc32)c(N)n1")
"0 (no)"
>>> class_name("O=C(CN1CCOCC1)Nc1cccc(Br)c1")
"0 (no)"
>>> class_name("CN(C)c1ccc(/C=C2/NC(=S)NC2=O)cc1")
"0 (no)"
>>> class_name("CS(=O)(=O)N1CCN(C(=O)c2ccccc2F)CC1")
"0 (no)"
>>> class_name("Cc1nnc(NCCN2CCOCC2)[nH]c1=O")
"0 (no)"
>>> class_name("CC(=O)c1c(C)nc(-c2ccc(Cl)cc2Cl)n1O")
"0 (no)"

Please share the test call associated with NC(=O)CN=Cc1c(O)[nH]c2ccccc12 . 0 (no)

What do you have for O=c1ccn(Cc2ccccc2)c(=O)n1Cc1ccccc1 ? 0 (no)

Same again, this time with CSc1ccc(/C=N/n2c(C)nnc2C)cc1 0 (no)

Another compound: COc1cc(S(=O)(=O)Nc2cccnc2)ccc1F 0 (no)

====

EXPERIMENTAL_SYSTEM: Peptidyl-prolyl cis-trans isomerase FKBP1A (Homo sapiens) (UniProt P62942)
ASSAY_PROTOCOL: small-molecule binding to FKBP12 – biophysical, NMR detection (AID 608)
CONDITION_PARAMETERS: purified FKBP12
Calls of active or inactive are those of the source. The rule behind the calls is not given here.
Pick one and only one: active, inactive

Here are 5 compounds together with their reported answers.
>>> class_name("CC12CN([N+](=O)[O-])C3(C(N)=O)CC1CCC23C (stereo not drawn)")
"inactive"
>>> class_name("Cn1ncc(CO)c1-c1ccccc1")
"inactive"
>>> class_name("CCCn1c(S(=O)(=O)O)nc2ccccc21")
"inactive"
>>> class_name("CC(=O)O[C@@H]1CC2C(C)(C)[C@H](O)CC[C@]2(C)C2CC[C@@]3(C)[C@H](c4ccoc4)OC(=O)C4OC43[C@@]21C (stereo partly drawn)")
"inactive"
>>> class_name("CCCCCCCCCCCCCCC(C(=O)OC)C(O)(CC(=O)OC)C(=O)OC (stereo not drawn)")
"inactive"

How did this test come out for C=C(C)CSc1nc2nc(C)cc(C)n2n1 ? inactive

For Clc1ccccc1OCc1nc(-c2ccccn2)no1 then? inactive

====

Here the recorded Kd is given for each entry.
EXPERIMENTAL_SYSTEM: Peptidyl-prolyl cis-trans isomerase FKBP1A (Homo sapiens)
ASSAY_PROTOCOL: small-molecule binding to FKBP12 – biophysical, NMR detection (AID 608)
CONDITION_PARAMETERS: purified FKBP12
Active and inactive are the calls of the source. How the calls were made is not given here.

Using the record for Nc1nc(-c2cccnc2)nn1C(=O)Cc1ccccc1 , report its Kd. > 4 mM (inactive)

Now give it for Cc1ccc(C)n1CCN1CCNCC1 too. > 4 mM (inactive)

Thanks! And Cc1ccc(C)c(S(=O)(=O)NCc2cccnc2)c1 ? > 4 mM (inactive)

====

EXPERIMENTAL_SYSTEM: Peptidyl-prolyl cis-trans isomerase FKBP1A (Homo sapiens) (UniProt P62942)
ASSAY_PROTOCOL: small-molecule binding to FKBP12 – biophysical, NMR detection (AID 608)
CONDITION_PARAMETERS: purified FKBP12
The source made the active and inactive calls. How the calls were made is not given here.
Output constraint: value belongs to active, inactive

Some solved entries appear below for comparison.
>>> class_name("O=C(c1ccco1)N1CCN(Cc2cccc(F)c2)CC1")
"inactive"
>>> class_name("CCc1cc(=O)[nH]c(SCC(=O)NCCOC)n1")
"inactive"
>>> class_name("CC(=O)N(C)Cc1nc2ccccc2n1C")
"inactive"

Called result for O=C(COc1cc(Cl)c(Cl)cc1Cl)N1CCOCC1 inactive

// next record CC(=O)OC1CCC23C(=O)OC45CCC(C6=CC(=O)OC6)C4(C)CCC2C5CCC3(O)C1 (stereo not drawn) inactive

How about COc1ccc(C[C@H]2NC[C@H](O)[C@H]2OC(C)=O)cc1 ? inactive

# repeat for Cn1c(NCC(=O)O)nc2c1c(=O)[nH]c(=O)n2C inactive

====

EXPERIMENTAL_SYSTEM: Peptidyl-prolyl cis-trans isomerase FKBP1A (Homo sapiens) (UniProt P62942)
ASSAY_PROTOCOL: small-molecule binding to FKBP12 – biophysical, NMR detection (AID 608)
CONDITION_PARAMETERS: purified FKBP12
Activity calls are given as the source filed them. No rule for the calls is given here.
Field 'call' accepts true for active, false for inactive

Status in this test for O=C(O)CCN1CCOCC1 ? false

One more compound: COc1ccccc1CNc1nc2nc(C)cc(=O)n2[nH]1 false

Consider next the compound O=C1CSC(=Nc2cccc(C(=O)O)c2)N1 in the same way. false

Please do the same for OCC(O)Cc1ccc2c(c1)OCO2 (configuration not stated) as well. false

Then this compound: Cc1nn(C)c(C)c1NC(=S)NC1CCCC1 false

// repeat for O=C1CN(C(=O)CN2CCOCC2)c2ccccc2N1 and report false

What about this compound? CC(C)c1ccc(CCC(=O)N2CCOCC2)cc1 true

====

Below, each of the compounds is paired with its reported Kd value.
EXPERIMENTAL_SYSTEM: Peptidyl-prolyl cis-trans isomerase FKBP1A (Homo sapiens)
ASSAY_PROTOCOL: small-molecule binding to FKBP12 – biophysical, NMR detection (AID 608)
CONDITION_PARAMETERS: purified FKBP12
Activity calls are given as the source filed them. The rule behind the calls is not given here.

See these solved cases before continuing.
>>> reported_measurement("CC(=O)NN1C(=O)c2cccc3cccc(c23)C1=O")
"> 4 mM (inactive)"
>>> reported_measurement("CN1CC(=O)N=C1N")
"> 4 mM (inactive)"
>>> reported_measurement("COc1ccc2cc1Oc1ccc(cc1)C[C@H]1c3c(cc4c(c3Oc3cc5c(cc3OC)CCN(C)[C@@H]5C2)OCO4)CCN1C")
"> 4 mM (inactive)"

We next turn to a different compound, shown below.
For the compound shown here, O=C1CC(=O)N2N=C(c3ccccc3)SC2=N1 , give the reported Kd. > 4 mM (inactive)

Values compiled from PubChem BioAssay AID608.
